Test system: DIPGX37 (H3.3 K27M diffuse intrinsic pontine glioma line)
Experiment: growth inhibition (% activity, log2 RLU normalised to DMSO / staurosporine); higher = more growth inhibition
Details: 33 µM
valueKind: growth inhibition (%)

| molecule | reportedMeasurement |
| --- | --- |
| c1cc(CN2CCCNCCNCCCNCC2)ccc1CN1CCCNCCNCCCNCC1 | 3.43 |
| CC(C)[C@H](N)C(=O)OCCOCn1cnc2c(=O)nc(N)[nH]c21 | 0.698 |
| CC(C)(Sc1cc(C(C)(C)C)c(O)c(C(C)(C)C)c1)Sc1cc(C(C)(C)C)c(O)c(C(C)(C)C)c1 | -0.535 |
| Cc1cc(C(C)(C)C)cc(C)c1CC1=NCCN1 | -1.44 |
| O=c1[nH]cc(F)c(=O)[nH]1 | -2.07 |
| NC(=O)c1cnccn1 | 0.819 |
| CN(N=O)C(=O)N[C@H]1C(O)O[C@H](CO)[C@@H](O)[C@@H]1O (mixture of isomers) | 2.37 |
| N=C(N)c1ccc2cc(OC(=O)c3ccc(N=C(N)N)cc3)ccc2c1 | -3.07 |
| Cc1cn([C@@H]2C[C@@H](O)[C@H](CO)O2)c(=O)[nH]c1=O | -0.0219 |
| Cc1cccc(C)c1OCC(=O)N[C@@H](Cc1ccccc1)[C@@H](O)C[C@H](Cc1ccccc1)NC(=O)[C@H](C(C)C)N1CCCNC1=O | 1.21 |

* * *

Readings of growth inhibition for the listed compounds
Test system: DIPGX9 (diffuse intrinsic pontine glioma line)
Assay: growth inhibition (% activity, log2 RLU normalised to DMSO / staurosporine); higher = more growth inhibition
Settings: 33 µM

| compound | measurementUnit | growth inhibition |
| --- | --- | --- |
| OC(CCN1CCCCC1)(c1ccccc1)c1ccccc1 | % | -0.762 |
| COc1cc(Nc2c(C#N)cnc3cc(OCCCN4CCN(C)CC4)c(OC)cc23)c(Cl)cc1Cl | % | 6.92 |
| CC[C@]1(O)C[C@H]2CN(CCc3c([nH]c4ccccc34)[C@@](C(=O)OC)(c3cc4c(cc3OC)N(C=O)[C@H]3[C@@](O)(C(=O)OC)[C@H](OC(C)=O)[C@]5(CC)C=CCN6CC[C@]43[C@@H]65)C2)C1 | % | 22.7 |
| CC(C)NCC(O)c1ccc(NS(C)(=O)=O)cc1 (stereo not drawn) | % | 0.414 |
| C[C@@H](O)[C@H]1C(=O)N2C(C(=O)OCOC(=O)C(C)(C)C)=C(SC3CN(C4=NCCS4)C3)[C@H](C)[C@H]12 | % | 0.809 |
| CO[C@@]1(NC(=O)C(C(=O)O)c2ccc(O)cc2)C(=O)N2C(C(=O)O)=C(CSc3nnnn3C)CO[C@@H]21 (stereo partly drawn) | % | -0.636 |
| NC(=O)c1cn(Cc2c(F)cccc2F)nn1 | % | -1.13 |
| CC(=O)OCC(=O)[C@@]1(O)[C@H](C)C[C@H]2[C@@H]3CCC4=CC(=O)C=C[C@]4(C)[C@@]3(F)[C@@H](O)C[C@@]21C | % | 6.29 |

* * *

System: SUDIPGIV (diffuse intrinsic pontine glioma line)
Assay: growth inhibition (% activity, log2 RLU normalised to DMSO / staurosporine); higher = more growth inhibition
Details: 33 µM
Readings of growth inhibition for the listed compounds
valueKind: growth inhibition (%)

| compound | reportedMeasurement |
| --- | --- |
| NC(CO)(CO)CO | 1.48 |
| COc1nc(C)nc(Cl)c1NC1=NCCN1 | -1.72 |
| CN(C)c1ccc(C(=C2C=CC(=[N+](C)C)C=C2)c2ccc(N(C)C)cc2)cc1 | 43.1 |
| C#CCC(Cc1cnc2nc(N)nc(N)c2n1)c1ccc(C(=O)N[C@@H](CCC(=O)O)C(=O)O)cc1 (some centres not stated) | 16.5 |
| N=C(N)N | 1.72 |
| Clc1ccccc1C(c1ccccc1)(c1ccccc1)n1ccnc1 | 26.9 |
| NCCc1ccc(O)c(O)c1 | 1.26 |
| CC(C(=O)O)c1ccc2c(c1)Cc1cccnc1O2 (configuration not stated) | -1.77 |
| COc1cccc2c1C(=O)c1c(O)c3c(c(O)c1C2=O)C[C@@](O)(C(C)=O)C[C@@H]3O[C@H]1C[C@H](N)[C@H](O)[C@H](C)O1 | 57.2 |
| NCC1OC(OC2C(N)CC(N)C(OC3OC(CO)C(O)C(N)C3O)C2O)C(N)C(O)C1O (configuration not stated) | -0.143 |
| CC(C(=O)O)c1ccc(-c2ccccc2)c(F)c1 (configuration not stated) | -4.24 |
| O=C(O)C(=O)O.[NH-]C1CCCCC1[NH-].[Pt+2] (configuration not stated) | -1.88 |
